- Procedure Text: refractive index (Na D-line) (dimensionless); xn = mol fraction of the nth substance listed
- Test Context: 308.15 K; 100.5 kPa; Liquid; Standard Abbe refractometry; x1 = 0.7
Recorded Endpoint: refractive index

Molecule: CCC(=O)OCc1ccccc1 [benzyl propanoate] + CCO
refractive index: 1.47302

Molecule: CC(=O)OCc1ccccc1 [benzyl ethanoate] + CCO
refractive index: 1.47508

Molecule: CCOC(=O)CC(C)=O [ethyl 3-oxobutanoate] + CCO
refractive index: 1.4033

Molecule: CCOC(=O)CC(C)C [ethyl 3-methylbutanoate] + CCO
refractive index: 1.3843

Molecule: CCOC(=O)c1ccccc1O [ethyl 2-hydroxybenzoate] + CCO
refractive index: 1.49331

Molecule: COC(=O)c1ccccc1 [methyl benzoate] + CCO
refractive index: 1.4852

---

- Procedure Text: xn = mol fraction of the nth substance listed
- Test Context: 308.15 K, Wilhelmy plate method, x1 = 0.7
Recorded Endpoint: surface tension liquid-gas (mN/m)

Compound: CCOC(=O)c1ccccc1O [ethyl 2-hydroxybenzoate] + CCO
surface tension liquid-gas, mN/m: 29.56

Compound: CCOC(=O)CC(C)C [ethyl 3-methylbutanoate] + CCO
surface tension liquid-gas, mN/m: 22.17

Compound: CC(=O)OCc1ccccc1 [benzyl ethanoate] + CCO
surface tension liquid-gas, mN/m: 30.58

Compound: CCOC(=O)CC(C)=O [ethyl 3-oxobutanoate] + CCO
surface tension liquid-gas, mN/m: 28.4

Compound: COC(=O)c1ccccc1 [methyl benzoate] + CCO
surface tension liquid-gas, mN/m: 30.5

Compound: CCC(=O)OCc1ccccc1 [benzyl propanoate] + CCO
surface tension liquid-gas, mN/m: 29.4

---

- Procedure Text: xn = mol fraction of the nth substance listed
- Test Context: 298.18 K, Wilhelmy plate method, x1 = 0.2
Recorded Endpoint: surface tension liquid-gas (mN/m)

Compound: CCOC(=O)CC(C)=O [ethyl 3-oxobutanoate] + CCO
Experimental Value: 24.38
--
Compound: CC(=O)OCc1ccccc1 [benzyl ethanoate] + CCO
Experimental Value: 25.18
--
Compound: CCC(=O)OCc1ccccc1 [benzyl propanoate] + CCO
Experimental Value: 25.25
--
Compound: COC(=O)c1ccccc1 [methyl benzoate] + CCO
Experimental Value: 25.25
--
Compound: CCOC(=O)CC(C)C [ethyl 3-methylbutanoate] + CCO
Experimental Value: 22.66
--
Compound: CCOC(=O)c1ccccc1O [ethyl 2-hydroxybenzoate] + CCO
Experimental Value: 25.14

---

- Procedure Text: xn = mol fraction of the nth substance listed
- Test Context: 298.18 K, Wilhelmy plate method, x1 = 0.7
Recorded Endpoint: surface tension liquid-gas (mN/m)

Molecule: CCOC(=O)CC(C)C [ethyl 3-methylbutanoate] + CCO
Experimental Value: 23.2
--
Molecule: CCOC(=O)c1ccccc1O [ethyl 2-hydroxybenzoate] + CCO
Experimental Value: 30.6
--
Molecule: COC(=O)c1ccccc1 [methyl benzoate] + CCO
Experimental Value: 31.75
--
Molecule: CC(=O)OCc1ccccc1 [benzyl ethanoate] + CCO
Experimental Value: 31.68
--
Molecule: CCC(=O)OCc1ccccc1 [benzyl propanoate] + CCO
Experimental Value: 30.52
--
Molecule: CCOC(=O)CC(C)=O [ethyl 3-oxobutanoate] + CCO
Experimental Value: 29.55

---

- Procedure Text: refractive index (Na D-line) (dimensionless); xn = mol fraction of the nth substance listed
- Test Context: 308.15 K; 100.5 kPa; Liquid; Standard Abbe refractometry; x1 = 0.65
Recorded Endpoint: refractive index

Compound: COC(=O)c1ccccc1 [methyl benzoate] + CCO
refractive index: 1.4801
--
Compound: CC(=O)OCc1ccccc1 [benzyl ethanoate] + CCO
refractive index: 1.47082
--
Compound: CCC(=O)OCc1ccccc1 [benzyl propanoate] + CCO
refractive index: 1.46917
--
Compound: CCOC(=O)CC(C)=O [ethyl 3-oxobutanoate] + CCO
refractive index: 1.4014
--
Compound: CCOC(=O)CC(C)C [ethyl 3-methylbutanoate] + CCO
refractive index: 1.38329
--
Compound: CCOC(=O)c1ccccc1O [ethyl 2-hydroxybenzoate] + CCO
refractive index: 1.48852

The origin of these recorded values is the NIST ThermoML archive (doi:10.1021/je060139a).
